The reported measurements were obtained from the supplement of paper PMC7877785.

# assay: self-splicing fitness, log relative to wild type (ln ratio); higher = more splicing; Tetrahymena group I intron in knt gene, E. coli kanamycin selection, DiMSum; sequences stand for … in CUCUCU…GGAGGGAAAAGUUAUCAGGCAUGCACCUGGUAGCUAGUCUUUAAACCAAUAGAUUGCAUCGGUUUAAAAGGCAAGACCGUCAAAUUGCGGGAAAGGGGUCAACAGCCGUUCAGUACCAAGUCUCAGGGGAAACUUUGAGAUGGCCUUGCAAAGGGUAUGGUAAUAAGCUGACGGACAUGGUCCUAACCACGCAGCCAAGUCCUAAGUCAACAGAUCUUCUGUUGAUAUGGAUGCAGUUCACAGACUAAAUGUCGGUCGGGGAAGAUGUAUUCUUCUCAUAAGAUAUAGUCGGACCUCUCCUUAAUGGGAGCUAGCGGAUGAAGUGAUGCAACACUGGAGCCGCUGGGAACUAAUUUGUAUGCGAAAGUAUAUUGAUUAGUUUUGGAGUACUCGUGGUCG;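 note: selection with 25 µg/mL kanamycin versus none on LB agar overnight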
# condition_set: 30 °C
# binning rule on self-splicing fitness (ln): A = under -3, B = from -3 up to -2, C = -2 and over

Below are worked cases with known answers.
- chain_sequence: "GCAUAGCAAUAUUACGCCAU"
  class_name: "A"
- chain_sequence: "CACGAGCAAUAUUACGGCCG"
  class_name: "C"
- chain_sequence: "AAGGAGCAAUAUUACGGCCU"
  class_name: "C"

Q) For GCGCAGCAAUAUUACGCACA , which self-splicing fitness (ln) bin applies?
A) C

Q) For CUAAAGCAAUAUUACGGUCA , which self-splicing fitness (ln) bin applies?
A) B

----------
# assay: self-splicing fitness, log relative to wild type (ln ratio); higher = more splicing; Tetrahymena group I intron in knt gene, E. coli kanamycin selection, DiMSum; sequences stand for … in CUCUCU…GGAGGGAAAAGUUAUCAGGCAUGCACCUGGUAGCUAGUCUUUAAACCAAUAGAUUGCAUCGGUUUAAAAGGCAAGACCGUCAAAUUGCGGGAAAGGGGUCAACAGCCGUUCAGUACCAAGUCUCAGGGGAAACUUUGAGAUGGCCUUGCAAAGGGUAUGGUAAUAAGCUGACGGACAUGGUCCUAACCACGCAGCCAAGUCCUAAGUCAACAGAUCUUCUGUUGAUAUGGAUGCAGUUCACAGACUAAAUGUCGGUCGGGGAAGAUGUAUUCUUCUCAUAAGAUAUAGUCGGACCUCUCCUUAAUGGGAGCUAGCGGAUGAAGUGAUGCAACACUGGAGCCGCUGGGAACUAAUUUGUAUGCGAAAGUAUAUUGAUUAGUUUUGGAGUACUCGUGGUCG
# condition_set: 30 °C
Is self-splicing fitness (ln) at least -3? Then label 1. If not, label 0.

Below are worked cases with known answers.
- chain_sequence: "UCAAAGCAAUAUUACGAGCU"
  class_name: "label 1"
- chain_sequence: "AGAGAGCAAUAUUACGGCAU"
  class_name: "label 1"
- chain_sequence: "GGGUAGCAAUAUUACGUCGU"
  class_name: "label 1"
- chain_sequence: "CGAUAGCAAUAUUACGAAAA"
  class_name: "label 0"
- chain_sequence: "AAUUAGCAAUAUUACGAGAU"
  class_name: "label 1"

Q) Could you please find out whether UUGGAGCAAUAUUACGCGUC has self-splicing fitness (ln) that meets -3 or exceeds it?
A) label 0

Q) Could you please find out whether AAGUAGCAAUAUUACGCGUG has self-splicing fitness (ln) that meets -3 or exceeds it?
A) label 1

Q) Could you please find out whether UAAAAGCAAUAUUACGUUAU has self-splicing fitness (ln) that meets -3 or exceeds it?
A) label 0

Q) Could you please find out whether UAAAAGCAAUAUUACGGAUA has self-splicing fitness (ln) that meets -3 or exceeds it?
A) label 1

Q) Could you please find out whether UAGGAGCAAUAUUACGAAAC has self-splicing fitness (ln) that meets -3 or exceeds it?
A) label 0

Q) Could you please find out whether UGGAAGCAAUAUUACGCUUG has self-splicing fitness (ln) that meets -3 or exceeds it?
A) label 0

Q) Could you please find out whether UCGGAGCAAUAUUACGGGCC has self-splicing fitness (ln) that meets -3 or exceeds it?
A) label 0

Q) Could you please find out whether AUCAAGCAAUAUUACGUACC has self-splicing fitness (ln) that meets -3 or exceeds it?
A) label 1

Q) Could you please find out whether CCGAAGCAAUAUUACGAUCC has self-splicing fitness (ln) that meets -3 or exceeds it?
A) label 0

Q) Could you please find out whether CGAUAGCAAUAUUACGGUGG has self-splicing fitness (ln) that meets -3 or exceeds it?
A) label 1

Q) Could you please find out whether UCCCAGCAAUAUUACGGAGU has self-splicing fitness (ln) that meets -3 or exceeds it?
A) label 1
